particulars: 308.15 K; 101.33 kPa; Liquid; Sing-around technique in a fixed-path interferometer
result.type: speed of sound (m/s)

molecule="CCCCC(=O)[O-].C[NH+]1CCCC1=O [N-methyl-2-oxopyrrolidinium pentanoate]" result_type="speed of sound" unit_symbol=m/s observed_value=1375.4
molecule="CCC(=O)[O-].C[NH+]1CCCC1=O [N-methyl-2-oxopyrrolidinium propionate]" result_type="speed of sound" unit_symbol=m/s observed_value=1406.4
molecule="C[NH+]1CCCC1=O.O=C[O-] [N-methyl-2-oxopyrrolidinium formate]" result_type="speed of sound" unit_symbol=m/s observed_value=1442.5
molecule="CCCCCC(=O)[O-].C[NH+]1CCCC1=O [N-methyl-2-oxopyrrolidinium hexanoate]" result_type="speed of sound" unit_symbol=m/s observed_value=1379.3
molecule="CC(=O)[O-].C[NH+]1CCCC1=O [N-methyl-2-oxopyrrolidinium acetate]" result_type="speed of sound" unit_symbol=m/s observed_value=1436.9
molecule="CCCC(=O)[O-].C[NH+]1CCCC1=O [N-methyl-2-oxopyrrolidinium butanoate]" result_type="speed of sound" unit_symbol=m/s observed_value=1382.2

----------
particulars: 303.15 K; 101.33 kPa; Liquid; Vibrating tube method
result.type: mass density (kg/m3)

compound="CCCC(=O)[O-].C[NH+]1CCCC1=O [N-methyl-2-oxopyrrolidinium butanoate]" result_type="mass density" observed_value=1001.65
compound="CCCCC(=O)[O-].C[NH+]1CCCC1=O [N-methyl-2-oxopyrrolidinium pentanoate]" result_type="mass density" observed_value=985.7
compound="C[NH+]1CCCC1=O.O=C[O-] [N-methyl-2-oxopyrrolidinium formate]" result_type="mass density" observed_value=1066.93
compound="CCC(=O)[O-].C[NH+]1CCCC1=O [N-methyl-2-oxopyrrolidinium propionate]" result_type="mass density" observed_value=1023.32
compound="CC(=O)[O-].C[NH+]1CCCC1=O [N-methyl-2-oxopyrrolidinium acetate]" result_type="mass density" observed_value=1041.42
compound="CCCCCC(=O)[O-].C[NH+]1CCCC1=O [N-methyl-2-oxopyrrolidinium hexanoate]" result_type="mass density" observed_value=974.6

----------
particulars: 333.15 K; 101.33 kPa; Liquid; Vibrating tube method
result.type: mass density (kg/m3)

compound="CCCC(=O)[O-].C[NH+]1CCCC1=O [N-methyl-2-oxopyrrolidinium butanoate]" unit_symbol=kg/m3 observed_value=974.76
compound="CC(=O)[O-].C[NH+]1CCCC1=O [N-methyl-2-oxopyrrolidinium acetate]" unit_symbol=kg/m3 observed_value=1013.44
compound="CCCCCC(=O)[O-].C[NH+]1CCCC1=O [N-methyl-2-oxopyrrolidinium hexanoate]" unit_symbol=kg/m3 observed_value=949.28
compound="CCC(=O)[O-].C[NH+]1CCCC1=O [N-methyl-2-oxopyrrolidinium propionate]" unit_symbol=kg/m3 observed_value=995.75
compound="C[NH+]1CCCC1=O.O=C[O-] [N-methyl-2-oxopyrrolidinium formate]" unit_symbol=kg/m3 observed_value=1038.43
compound="CCCCC(=O)[O-].C[NH+]1CCCC1=O [N-methyl-2-oxopyrrolidinium pentanoate]" unit_symbol=kg/m3 observed_value=959.71

----------
particulars: 323.15 K; 101.33 kPa; Liquid; Falling or rolling sphere viscometry
result.type: viscosity (mPa·s)

molecule="CCCCC(=O)[O-].C[NH+]1CCCC1=O [N-methyl-2-oxopyrrolidinium pentanoate]" result_type=viscosity observed_value=2.284

P = CCC(=O)[O-].C[NH+]1CCCC1=O [N-methyl-2-oxopyrrolidinium propionate]
Q = CCCCCC(=O)[O-].C[NH+]1CCCC1=O [N-methyl-2-oxopyrrolidinium hexanoate]
Q: Pick one: P or Q . Which has the bigger viscosity number? Answer format: the label of the selected item.
Result: Q
(Q: 2.57 mPa·s, P: 1.75 mPa·s)

----------
particulars: 298.15 K; 101.33 kPa; Liquid; Sing-around technique in a fixed-path interferometer
result.type: speed of sound (m/s)

compound="CC(=O)[O-].C[NH+]1CCCC1=O [N-methyl-2-oxopyrrolidinium acetate]" observed_value=1473.5
compound="C[NH+]1CCCC1=O.O=C[O-] [N-methyl-2-oxopyrrolidinium formate]" observed_value=1478.3
compound="CCCCC(=O)[O-].C[NH+]1CCCC1=O [N-methyl-2-oxopyrrolidinium pentanoate]" observed_value=1410.5
compound="CCC(=O)[O-].C[NH+]1CCCC1=O [N-methyl-2-oxopyrrolidinium propionate]" observed_value=1442.6
compound="CCCC(=O)[O-].C[NH+]1CCCC1=O [N-methyl-2-oxopyrrolidinium butanoate]" observed_value=1418
compound="CCCCCC(=O)[O-].C[NH+]1CCCC1=O [N-methyl-2-oxopyrrolidinium hexanoate]" observed_value=1414.2

----------
particulars: 318.15 K; 101.33 kPa; Liquid; Vibrating tube method
result.type: mass density (kg/m3)

compound="CC(=O)[O-].C[NH+]1CCCC1=O [N-methyl-2-oxopyrrolidinium acetate]" result_type="mass density" observed_value=1027.46
compound="C[NH+]1CCCC1=O.O=C[O-] [N-methyl-2-oxopyrrolidinium formate]" result_type="mass density" observed_value=1052.71
compound="CCCCCC(=O)[O-].C[NH+]1CCCC1=O [N-methyl-2-oxopyrrolidinium hexanoate]" result_type="mass density" observed_value=961.96
compound="CCCCC(=O)[O-].C[NH+]1CCCC1=O [N-methyl-2-oxopyrrolidinium pentanoate]" result_type="mass density" observed_value=972.73
compound="CCC(=O)[O-].C[NH+]1CCCC1=O [N-methyl-2-oxopyrrolidinium propionate]" result_type="mass density" observed_value=1009.56
compound="CCCC(=O)[O-].C[NH+]1CCCC1=O [N-methyl-2-oxopyrrolidinium butanoate]" result_type="mass density" observed_value=988.24

----------
particulars: 313.15 K; 101.33 kPa; Liquid; Vibrating tube method
result.type: mass density (kg/m3)

molecule="CC(=O)[O-].C[NH+]1CCCC1=O [N-methyl-2-oxopyrrolidinium acetate]" result_type="mass density" observed_value=1032.12
molecule="C[NH+]1CCCC1=O.O=C[O-] [N-methyl-2-oxopyrrolidinium formate]" result_type="mass density" observed_value=1057.45
molecule="CCCC(=O)[O-].C[NH+]1CCCC1=O [N-methyl-2-oxopyrrolidinium butanoate]" result_type="mass density" observed_value=992.71
molecule="CCCCCC(=O)[O-].C[NH+]1CCCC1=O [N-methyl-2-oxopyrrolidinium hexanoate]" result_type="mass density" observed_value=966.18
molecule="CCCCC(=O)[O-].C[NH+]1CCCC1=O [N-methyl-2-oxopyrrolidinium pentanoate]" result_type="mass density" observed_value=977.06
molecule="CCC(=O)[O-].C[NH+]1CCCC1=O [N-methyl-2-oxopyrrolidinium propionate]" result_type="mass density" observed_value=1014.16

----------
particulars: 323.15 K; 101.33 kPa; Liquid; Vibrating tube method
result.type: mass density (kg/m3)

compound="CCCCC(=O)[O-].C[NH+]1CCCC1=O [N-methyl-2-oxopyrrolidinium pentanoate]" observed_value=968.39
compound="CCCC(=O)[O-].C[NH+]1CCCC1=O [N-methyl-2-oxopyrrolidinium butanoate]" observed_value=983.74
compound="CCCCCC(=O)[O-].C[NH+]1CCCC1=O [N-methyl-2-oxopyrrolidinium hexanoate]" observed_value=957.74
compound="C[NH+]1CCCC1=O.O=C[O-] [N-methyl-2-oxopyrrolidinium formate]" observed_value=1047.96
compound="CC(=O)[O-].C[NH+]1CCCC1=O [N-methyl-2-oxopyrrolidinium acetate]" observed_value=1022.79
compound="CCC(=O)[O-].C[NH+]1CCCC1=O [N-methyl-2-oxopyrrolidinium propionate]" observed_value=1004.97

----------
particulars: 338.15 K; 101.33 kPa; Liquid; Falling or rolling sphere viscometry
result.type: viscosity (mPa·s)

Before answering, review these 3 worked examples.
compound="CCCC(=O)[O-].C[NH+]1CCCC1=O [N-methyl-2-oxopyrrolidinium butanoate]" result_type=viscosity observed_value=1.639
compound="CC(=O)[O-].C[NH+]1CCCC1=O [N-methyl-2-oxopyrrolidinium acetate]" result_type=viscosity observed_value=1.344
compound="CCC(=O)[O-].C[NH+]1CCCC1=O [N-methyl-2-oxopyrrolidinium propionate]" result_type=viscosity observed_value=1.407

1 = CCCCC(=O)[O-].C[NH+]1CCCC1=O [N-methyl-2-oxopyrrolidinium pentanoate]
2 = C[NH+]1CCCC1=O.O=C[O-] [N-methyl-2-oxopyrrolidinium formate]
Q: viscosity comparison. Which is larger, 1 or 2 ? Answer by stating the label of the chosen item.
Result: 1
(1: 1.769 mPa·s, 2: 1.223 mPa·s)

----------
particulars: 293.15 K; 101.33 kPa; Liquid; Vibrating tube method
result.type: mass density (kg/m3)

molecule="CC(=O)[O-].C[NH+]1CCCC1=O [N-methyl-2-oxopyrrolidinium acetate]" observed_value=1050.71
molecule="CCCCC(=O)[O-].C[NH+]1CCCC1=O [N-methyl-2-oxopyrrolidinium pentanoate]" observed_value=994.31
molecule="CCC(=O)[O-].C[NH+]1CCCC1=O [N-methyl-2-oxopyrrolidinium propionate]" observed_value=1032.46
molecule="CCCCCC(=O)[O-].C[NH+]1CCCC1=O [N-methyl-2-oxopyrrolidinium hexanoate]" observed_value=983.01
molecule="C[NH+]1CCCC1=O.O=C[O-] [N-methyl-2-oxopyrrolidinium formate]" observed_value=1076.38
molecule="CCCC(=O)[O-].C[NH+]1CCCC1=O [N-methyl-2-oxopyrrolidinium butanoate]" observed_value=1010.56
